// provenance: patent US20140178332A1

Target: T1, recombinant purified human IL-12 p70 (human, UniProt P29459 23-219)
T1 construct: Disulfide-linked heterodimer of p35 and p40; also called hIL-12; Hu IL-12
T1 sequence 1: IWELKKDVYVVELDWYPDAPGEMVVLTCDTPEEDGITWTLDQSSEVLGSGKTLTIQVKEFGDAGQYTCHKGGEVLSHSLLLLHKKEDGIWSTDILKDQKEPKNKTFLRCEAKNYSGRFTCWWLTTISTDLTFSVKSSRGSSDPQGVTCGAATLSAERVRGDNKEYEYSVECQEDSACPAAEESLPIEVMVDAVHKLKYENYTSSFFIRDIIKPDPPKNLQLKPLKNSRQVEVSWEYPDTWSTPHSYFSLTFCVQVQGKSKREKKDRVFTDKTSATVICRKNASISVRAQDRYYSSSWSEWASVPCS
T1 sequence 2: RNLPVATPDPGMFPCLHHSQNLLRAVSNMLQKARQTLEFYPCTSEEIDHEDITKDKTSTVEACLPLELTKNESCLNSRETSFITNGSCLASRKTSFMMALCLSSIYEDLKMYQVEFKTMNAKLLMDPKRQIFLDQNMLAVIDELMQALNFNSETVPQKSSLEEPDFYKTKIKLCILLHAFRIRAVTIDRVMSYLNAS
Test: SPR (Biacore) as in Example 1.1.B, human IL-12p70
Listing: koff of selected binders
Please state the figure in s⁻¹; there is no need to write the unit.

[Q] # lookup: koff of CDR grafted anti IL-12p40 antibody 1A6.1 (antibody, human IgG1, kappa, L234A L235A, V domains shown, Full-length CDR-grafted antibody, COS cells) VH: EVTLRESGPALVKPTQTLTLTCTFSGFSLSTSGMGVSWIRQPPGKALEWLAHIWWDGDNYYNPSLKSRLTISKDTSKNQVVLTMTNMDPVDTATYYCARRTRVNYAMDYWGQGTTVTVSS VL: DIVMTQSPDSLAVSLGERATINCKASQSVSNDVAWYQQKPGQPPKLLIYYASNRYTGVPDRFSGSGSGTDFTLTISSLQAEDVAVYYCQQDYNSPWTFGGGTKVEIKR
[A] 2.9e-05

[Q] # lookup: koff of CDR grafted anti IL-12p40 antibody 1D4.1 (antibody, human IgG1, kappa, L234A L235A, V domains shown, Full-length CDR-grafted antibody, COS cells) VH: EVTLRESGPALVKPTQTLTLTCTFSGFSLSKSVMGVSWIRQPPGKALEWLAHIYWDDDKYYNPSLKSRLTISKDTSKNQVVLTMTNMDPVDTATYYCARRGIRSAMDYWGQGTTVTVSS VL: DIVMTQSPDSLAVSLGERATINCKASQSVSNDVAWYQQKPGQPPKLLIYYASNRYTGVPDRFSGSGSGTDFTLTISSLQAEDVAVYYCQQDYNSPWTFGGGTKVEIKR
[A] 2.9e-05

[Q] # lookup: koff of CDR grafted anti IL-12p40 antibody 3G7.1 (antibody, human IgG1, kappa, L234A L235A, V domains shown, Full-length CDR-grafted antibody, COS cells) VH: EVQLVQSGAEVKKPGSSVKVSCKASGGTFSDYWIEWVRQAPGQGLEWMGGFSHGSGSTNYNEKFKGRVTITADKSTSTAYMELSSLRSEDTAVYYCARRRFRGMDYWGQGTTVTVSS VL: DIVMTQSPDSLAVSLGERATINCKASQSVSNDVAWYQQKPGQPPKLLIYYASNRYTGVPDRFSGSGSGTDFTLTISSLQAEDVAVYYCQQDYSSPWSFGGGTKVEIKR
[A] 9.1e-05

[Q] # lookup: koff of CDR grafted anti IL-12p40 antibody 8E1.1 (antibody, human IgG1, kappa, L234A L235A, V domains shown, Full-length CDR-grafted antibody, COS cells) VH: EVQLVESGGGLVQPGGSLRLSCAASGFTFSDYGMVWVRQAPGKGLEWVGSISSGSSNIYYADTVKGRFTISRDDSKNSLYLQMNSLKTEDTAVYYCARNPYWGQGTTVTVSS VL: DIQMTQSPSSLSASVGDRVTITCKASQNVGTNVAWYQQKPEKAPKSLIYSASHRYSGVPSRFSGSGSGTDFTLTISSLQPEDFATYYCQQYNSYPLTFGGGTKVEIKR
[A] 0.00087
